Assay: NCI Yeast Anticancer Drug Screen. Data for the rad50 strain (AID 155);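 note: 0% = growth of vehicle-only cultures of the same strain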
Conditions: S. cerevisiae rad50 strain growth inhibition; at 50.0 µM (retest, dose inferred, filed as 5.0); hits give high values
The panel holds about 79,000 compounds, 15% with a hit somewhere; the sample as a whole holds those more often.
Item-by-item account of growth inhibition
The figure you give is taken to be in %; do not add the unit.

Below: 3 compounds and their reported growth inhibition.
Cc1cc(O)c(C(=O)/C=C/c2cccnc2)c(=O)[nH]1 = 79
Fc1ccc(NC(=S)SCc2ccccc2)cc1 = 16
Cc1ccc(NC(=S)SCc2ccc(Cl)cc2)cc1C = 94

Given OC(c1cc(-c2ccccc2)nc2c(Cl)cc(Cl)cc12)C1CCCCN1 (stereo not given) , state its recorded growth inhibition. 97

Record: CCC1CN2CCc3cc(OC)c(OC)cc3C2CC1CC1c2cc(OC)c(OC)cc2CCN1C(=O)C(Cc1c[nH]c2ccccc12)NC(=O)OC(C)(C)C (stereo not given) 97

----------
Known growth inhibition of a selection of compounds
Assay: NCI Yeast Anticancer Drug Screen. Data for the cln2 rad14 strain (AID 165);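 note: 0% = growth equal to vehicle treated cultures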
Conditions: S. cerevisiae cln2 rad14 strain, at 50.0 µM, hits give high values
Compounds without any hit were thinned out: in the full panel of roughly 79,000, 15% have a hit. Activity calls are given as the source filed them. Rule as the data show it: active = growth inhibition above about 70%; inactive = the rest.

O=C1c2ccccc2C(=O)c2c(OCCOCCO)cccc21 = 24.6% (inactive)
CCOC(=O)c1c(C)c2c(n1C)CCc1sc(N)nc1-2 = 43.3% (inactive)
CSC(C=P(c1ccccc1)(c1ccccc1)c1ccccc1)=Nc1ccccc1 = 98.3% (active)
CCCCCCCCCCCCO = -4.65% (inactive)
CN(C)/N=C\C1CC=CCC1 (centres undefined) = 82.9% (active)
Cc1ccc(S(=O)(=O)OC2COC3C(OS(=O)(=O)c4ccc(C)cc4)COC23)cc1 (centres undefined) = 46% (inactive)

Quick one: growth inhibition for `CC1(C)[C@@H]2CC[C@]1(C)[C@@H](OC(=O)CSC#N)C2` ? 98.8% (active)

Request: `CC1=C(C(=O)Nc2ccc(Cl)c(Cl)c2)C(c2ccco2)C(C(=O)Nc2ccc(Cl)c(Cl)c2)=C(C)N1` 88.2% (active)

Could you do the same for `O=c1[nH]c(Cc2ccccc2)nc2c1sc1nc3ccccc3n12` , please? -2.85% (inactive)

Now consider `CCOC(=O)/C(=C\N1C(=O)/C(=C\C(C)=C\c2ccccc2)SC1=S)C(=O)c1ccccc1` and answer again. 57% (inactive)

Continue with `COc1c(Br)c(=O)n(C)c(=O)n1C` 88.3% (active)

Repeat for the following compound: `O=C(Nc1c(Cl)cc([N+](=O)[O-])cc1Cl)/C(=N\Nc1cccc(Cl)c1)c1c(O)c2ccccc2oc1=O` 25.7% (inactive)

Query CC1CCC(=NNC(N)=O)CC1 (centres undefined) next 34.9% (inactive)

Then this compound: `Cc1ccc2c(c1)-c1cc(C)ccc1C2(O)c1ccccc1` 97.2% (active)

Repeat with COC1OC(=O)CC1C1CC=C2C3CCC4CC(O)CCC4(C)C3CCC21C (centres undefined) 62.6% (inactive)

Then what about the compound `COC(=O)c1nnn(-c2ccc(Cl)cc2Cl)c1C(=O)c1ccc(Cl)c(Cl)c1` ? 92.1% (active)

// query: `CCN(CC)C(=S)N/N=C(\C)c1cccc(C)n1` 89.4% (active)
